Reported values of Plant response rating, Crabgrass, Large for individual entries
Test system: large crabgrass (Digitaria sanguinalis)
assay comment: Test A pre-/postemergence plant response
Assay type: in vivo
measurement context: Preemergence, 500 g ai/ha; 0 to 100 scale, 0 = no effect, 100 = complete control

| compound | Plant response rating, Crabgrass, Large |
| --- | --- |
| COc1ccc(-n2c(-c3cccc(Br)c3)ncc(C(=O)C3=C(O)CCCC3=O)c2=O)cc1 [Compound 176] | 20 |
| CCCCn1c(C2CC2)ncc(C(=O)C2=C(O)CCCC2=O)c1=O [Compound 193] | 100 |
| Cc1ccc(-n2c(-c3cccc(C)c3)ncc(C(=O)C3=C(O)CCCC3=O)c2=O)cc1 [Compound 211] | 90 |
| CCCn1c(-c2ccccc2)ncc(C(=O)C2=C(O)C3CCC(C3)C2=O)c1=O (centres unmarked) [Compound 226] | 100 |
| CCCn1c(-c2ccc3ccccc3c2)ncc(C(=O)C2=C(O)C3CCC(C3)C2=O)c1=O (centres unmarked) [Compound 242] | 10 |
| CCCn1c(-c2cccc(C)c2)ncc(C(=O)C2=C(O)CCCC2=O)c1=O [Compound 172] | 90 |
| CCc1ccc(-n2c(-c3cccc(F)c3)ncc(C(=O)C3=C(O)CCCC3=O)c2=O)cc1 [Compound 204] | 100 |
| CCc1cccc(-n2c(-c3ccccc3)ncc(C(=O)C3=C(O)CCCC3=O)c2=O)c1 [Compound 220] | 90 |
| CCCCn1c(-c2cccc(C)c2)ncc(C(=O)C2=C(O)C3CCC(C3)C2=O)c1=O (centres unmarked) [Compound 232] | 40 |
| C#CCn1c(-c2cc(F)cc(F)c2)ncc(C(=O)C2=C(O)CCCC2=O)c1=O [Compound 170] | 70 |
| CCCn1c(-c2cc(Cl)cc(Cl)c2)ncc(C(=O)C2=C(O)CCCC2=O)c1=O [Compound 173] | 100 |

* * *

System: wild oat (Avena fatua)
assay comment: Test B pre-/postemergence plant response
Format: in vivo
measurement context: Postemergence, 125 g ai/ha; visual rating after 13 to 15 days, scale 0 (no effect) to 100 (complete control)
Decide by Plant response rating, Oat, Wild: equal to or exceeding 50 means label 1, less means label 0.

| compound string | tgt | class assignment |
| --- | --- | --- |
| CCn1c(-c2ccccc2)ncc(C(=O)C2=C(O)CCCC2=O)c1=O | wild oat (Avena fatua) | label 0 |
| Cc1ccc(-n2c(-c3cccc(Cl)c3)ncc(C(=O)C3=C(O)CCCC3=O)c2=O)cc1 | wild oat (Avena fatua) | label 0 |
| CCCc1ncc(C(=O)C2=C(O)CCCC2=O)c(=O)n1-c1cccc(C)c1 | wild oat (Avena fatua) | label 1 |
| O=C1CCCC(O)=C1C(=O)c1cnc(-c2cccc(Br)c2)n(-c2ccccc2)c1=O | wild oat (Avena fatua) | label 1 |
| Cc1ccc(C)c(-n2c(-c3ccccc3)ncc(C(=O)C3=C(O)CCCC3=O)c2=O)c1 | wild oat (Avena fatua) | label 1 |
| CCCn1c(-c2ccccc2)ncc(C(=O)C2=C(O)CCCC2=O)c1=O | wild oat (Avena fatua) | label 0 |
| Cc1cccc(-n2c(-c3ccccc3)ncc(C(=O)C3=C(O)CCCC3=O)c2=O)c1F | wild oat (Avena fatua) | label 1 |

* * *

System: canarygrass (Phalaris minor)
assay comment: Test B postemergence plant response
Format: in vivo
measurement context: 62 g ai/ha, postemergence; 0 is no effect, 100 is complete control; 13 to 15 days
Source text: […] Treated plants and controls were maintained in a greenhouse for 13 to 15 days, after which time all treated plants were visually evaluated and compared to controls. […]
parameter: Canarygrass plant response rating (0 to 100 scale)

| compound string | tgt | numeric readout |
| --- | --- | --- |
| CCCCCCn1c(-c2ccccc2)ncc(C(=O)C2=C(O)CCCC2=O)c1=O | canarygrass (Phalaris minor) | 5 |
| O=C1CCCC(O)=C1C(=O)c1cnc(-c2ccsc2)n(C2CCCCC2)c1=O | canarygrass (Phalaris minor) | 60 |
| CC(C)Cc1ncc(C(=O)C2=C(O)CCCC2=O)c(=O)n1-c1ccccc1 | canarygrass (Phalaris minor) | 0 |

* * *

System: canarygrass (Phalaris minor)
assay comment: Test B postemergence plant response
Assay type: in vivo
measurement context: 62 g ai/ha, postemergence; 0 is no effect, 100 is complete control; 13 to 15 days
parameter: Canarygrass plant response rating (0 to 100 scale)

| compound | numeric readout |
| --- | --- |
| COCCn1c(-c2ccco2)ncc(C(=O)C2=C(O)CCCC2=O)c1=O [Compound 111] | 0 |
| O=C1CCCC(O)=C1C(=O)c1cnc(-c2ccsc2)n(CC2CCCO2)c1=O (centres unmarked) [Compound 98] | 20 |
| O=C1CCCC(O)=C1C(=O)c1cnc(-c2ccccc2)n(C2CCCCC2)c1=O [Compound 128] | 10 |
| O=C1CCCC(O)=C1C(=O)c1cnc(-c2ccccc2)n(C2CCCCCC2)c1=O [Compound 130] | 20 |
| O=C1CCCC(O)=C1C(=O)c1cnc(-c2cccc(Br)c2)n(-c2ccccc2)c1=O [Compound 69] | 0 |
| O=C1CCCC(O)=C1C(=O)c1cnc(-c2ccccc2)n(C2CC2)c1=O [Compound 90] | 10 |
| O=C1CCCC(O)=C1C(=O)c1cnc(C2CCCC2)n(-c2ccccc2)c1=O [Compound 92] | 0 |
| CCCc1ncc(C(=O)C2=C(O)CCCC2=O)c(=O)n1-c1cccc(C)c1 [Compound 79] | 30 |

* * *

Tested on: wheat (Triticum aestivum)
assay comment: Test A pre-/postemergence plant response
Assay type: in vivo
measurement context: Postemergence, 125 g ai/ha; 0 to 100 scale where 0 is no effect and 100 is complete control

| compound | Plant response rating, Wheat |
| --- | --- |
| COCCOCCn1c(-c2ccccc2)ncc(C(=O)C2=C(O)CCCC2=O)c1=O [Compound 91] | 0 |
| O=C1CCCC(O)=C1C(=O)c1cnc(-c2ccccc2)n(C2CC[S+]([O-])CC2)c1=O (mixture of isomers) [Compound 169] | 20 |
| COc1ccc(-n2c(-c3cccc(Cl)c3)ncc(C(=O)C3=C(O)CCCC3=O)c2=O)cc1 [Compound 151] | 0 |
| O=C1CCCC(O)=C1C(=O)c1cnc(-c2ccccc2)n(C2CCOCC2)c1=O [Compound 129] | 0 |
| CCCn1c(-c2cc(F)cc(F)c2)ncc(C(=O)C2=C(O)CC(C)(C)CC2=O)c1=O [Compound 224] | 0 |
| CCCn1c(-c2ccco2)ncc(C(=O)C2=C(O)C3CCC(C3)C2=O)c1=O (centres unmarked) [Compound 230] | 0 |
| Cc1ccc(F)cc1-n1c(-c2cc(F)cc(F)c2)ncc(C(=O)C2=C(O)CCCC2=O)c1=O [Compound 183] | 50 |
| CCc1ccc(-n2c(-c3cccc(Br)c3)ncc(C(=O)C3=C(O)CCCC3=O)c2=O)cc1 [Compound 175] | 0 |

* * *

Test system: velvetleaf (Abutilon theophrasti)
assay comment: Test B pre-/postemergence plant response
Type: in vivo
measurement context: Preemergence, 31 g ai/ha; scale 0 to 100 (0 no effect, 100 complete control)
Binary call on Plant response rating, Velvetleaf with cut-off 80: strictly below means fulfilled, and equality or higher means not fulfilled.

| compound string | class assignment |
| --- | --- |
| O=C1CCCC(O)=C1C(=O)c1cnc(-c2cccc(Cl)c2)n(-c2ccccc2)c1=O | fulfilled |
| Cc1ccc(-n2c(-c3cccc(Cl)c3)ncc(C(=O)C3=C(O)CCCC3=O)c2=O)cc1 | fulfilled |
| Cc1ccc(F)c(-n2c(-c3ccccc3)ncc(C(=O)C3=C(O)CCCC3=O)c2=O)c1 | fulfilled |
| Cc1ccc(C)c(-n2c(-c3ccccc3)ncc(C(=O)C3=C(O)CCCC3=O)c2=O)c1 | fulfilled |
| CCCCn1c(C2CC2)ncc(C(=O)C2=C(O)CCCC2=O)c1=O | not fulfilled |
| CCCCn1c(CCC)ncc(C(=O)C2=C(O)CCCC2=O)c1=O | not fulfilled |

* * *

Test system: giant foxtail (Setaria faberii)
assay comment: Test A pre-/postemergence plant response
Format: in vivo
measurement context: Preemergence, 500 g ai/ha; 0 to 100 scale, 0 = no effect, 100 = complete control

| molecule | tgt | Plant response rating, Foxtail, Giant |
| --- | --- | --- |
| O=C1CCCC(O)=C1C(=O)c1cnc(-c2ccc(F)c(F)c2)n(C2CCCCC2)c1=O | giant foxtail (Setaria faberii) | 70 |
| COCCCn1c(-c2cc(F)cc(F)c2)ncc(C(=O)C2=C(O)C3CCC(C3)C2=O)c1=O (stereo not drawn) | giant foxtail (Setaria faberii) | 100 |
| COc1ccc(-n2c(-c3cccc(C)c3)ncc(C(=O)C3=C(O)CCCC3=O)c2=O)cc1 | giant foxtail (Setaria faberii) | 50 |
| COc1cccc(-c2ncc(C(=O)C3=C(O)CCCC3=O)c(=O)n2C2CCCCC2)c1 | giant foxtail (Setaria faberii) | 80 |
| O=C1CCCC(O)=C1C(=O)c1cnc(-c2ccccc2)n(CCC(F)(F)F)c1=O | giant foxtail (Setaria faberii) | 80 |
| CCCCn1c(-c2cccc(C)c2)ncc(C(=O)C2=C(O)C3CCC(C3)C2=O)c1=O (stereo not drawn) | giant foxtail (Setaria faberii) | 70 |
| CCCn1c(-c2ccc3ccccc3c2)ncc(C(=O)C2=C(O)C3CCC(C3)C2=O)c1=O (stereo not drawn) | giant foxtail (Setaria faberii) | 0 |
| Cc1ccccc1-n1c(-c2cccc(Br)c2)ncc(C(=O)C2=C(O)CCCC2=O)c1=O | giant foxtail (Setaria faberii) | 60 |
| CCCn1c(-c2ccc3c(c2)OCCO3)ncc(C(=O)C2=C(O)C3CCC(C3)C2=O)c1=O (stereo not drawn) | giant foxtail (Setaria faberii) | 70 |
| Cc1c(F)cccc1-n1c(-c2ccccc2)ncc(C(=O)C2=C(O)C3CCC(C3)C2=O)c1=O (stereo not drawn) | giant foxtail (Setaria faberii) | 60 |
| CCCCn1c(C2CC2)ncc(C(=O)C2=C(O)CCCC2=O)c1=O | giant foxtail (Setaria faberii) | 90 |
| Cc1cccc(-c2ncc(C(=O)C3=C(O)CCCC3=O)c(=O)n2-c2ccc(F)cc2C)c1 | giant foxtail (Setaria faberii) | 40 |
| O=C(C1=C(O)C2CCC(C2)C1=O)c1cnc(-c2ccccc2)n(C2CCOCC2)c1=O (stereo not drawn) | giant foxtail (Setaria faberii) | 40 |
| Cc1cccc(-c2ncc(C(=O)C3=C(O)CCCC3=O)c(=O)n2-c2cc(F)ccc2C)c1 | giant foxtail (Setaria faberii) | 50 |
| CCOCCn1c(-c2cc(F)cc(F)c2)ncc(C(=O)C2=C(O)CCCC2=O)c1=O | giant foxtail (Setaria faberii) | 80 |
